System: NCI-H23 lung
Assay: NCI tumour cell line growth inhibition, 48 h
observation type: TGI

Prompt line: What value of TGI has been reported for the following compound? Cc1nc2ccccc2c(/C=C/c2ccc(F)cc2)c1C(=O)/C=C/c1ccccc1
Response line: 5.43 µM

Prompt line: For CCOC(=O)/C(=C\n1c(=O)sc2ccccc21)C(=O)c1ccccc1 then?
Response line: > 100 µM

----------
Tested on: PC-3 prostate
Experiment: NCI tumour cell line growth inhibition, 48 h
# TGI values compiled below

Examples from the recorded data:
Prompt line: Look at this compound and give its reported TGI. CCOC(=O)c1c(C)n(Cc2ccc(Cl)cc2Cl)c2c1cc(O)c1[nH]c(Cc3ccccc3)nc12
Response line: 5.62 µM

Prompt line: Same again, this time with NC(=S)N/N=C1\CCc2ccccc2C1
Response line: > 100 µM

Prompt line: Same for C=CCC(NCc1ccccc1)c1cn(C(=O)OCC)c2ccccc12 (stereo not given)
Response line: 96.4 µM

Prompt line: What would you report for COc1ccc(-n2c(C)nc3ccc(NC4OCC(OC(C)=O)C(OC(C)=O)C4OC(C)=O)cc3c2=O)cc1 (stereo not given) ?
Response line: > 100 µM

Prompt line: Another compound to look at: O=C(N/N=C/c1coc2ccc(Cl)cc2c1=O)c1cc(O)c(O)c(O)c1
Response line: > 100 µM

Prompt line: Repeat with Cc1ccc(S(=O)(=O)NC(=O)Nc2ncn[nH]2)cc1
Response line: > 100 µM

Prompt line: Another compound: CC(C)(C)C1CC[C@H](O)[C@H]([C@@H](O)CC2CC(=O)N(c3ccccc3)C(=O)C2)C1 (stereo not given in full)
Response line: > 100 µM

Prompt line: Param item: COc1cnc2oc3ccc(O)cc3c2c1-c1ccccc1
Response line: > 100 µM

Prompt line: Further, for COc1cccc(/C=C2\COc3ccc(O)c(O)c3C2=O)c1OC ?
Response line: 11 µM

Would you kindly look at the next entry?
Prompt line: Find the recorded TGI belonging to CCCCCCCCCCCCCCCCNc1nc(=O)n(C2CC(O)C(COP(=O)(O)OC3CC(n4cc(F)c(=O)[nH]c4=O)OC3CO)O2)cc1F (stereo not given) and report it.
Response line: > 78.6 µM

----------
Test system: SK-MEL-28 melanoma
Experiment: NCI tumour cell line growth inhibition, 48 h
Each entry below lists one item and its recorded TGI value.

Prompt line: Report TGI for NC(=S)N/N=C1\CCc2ccccc2C1 please.
Response line: > 100 µM

Prompt line: Then this molecule: COc1cccc(-c2nc(N)c(C#N)c3c2CCS(=O)(=O)c2ccc(C)cc2-3)c1
Response line: > 100 µM

Prompt line: CN(C)Cc1cc(C(=O)/C=C/c2ccc(Cl)cc2Cl)cc(CN(C)C)c1O , same question.
Response line: 19.1 µM

----------
Test system: NCI-H460 lung
The reply should name one outcome from 1 (active), -1 (inactive)

Worked cases, answers included:
Prompt line: What outcome does the record of this test show for COc1cccc2c1C(=O)c1c(O)c3c(c(O)c1C2=O)C[C@@](O)(C(=O)CO)C[C@@H]3OC1CC2C(OCN2CN2COC3C(C)OC(O[C@H]4C[C@](O)(C(=O)CO)Cc5c(O)c6c(c(O)c54)C(=O)c4c(OC)cccc4C6=O)CC32)C(C)O1 (some centres not stated) ?
Response line: 1

Prompt line: One more molecule: O=C(N/N=C/c1coc2ccc(Cl)cc2c1=O)c1cc(O)c(O)c(O)c1
Response line: -1

Prompt line: Try this molecule too: C=CC(=O)N1CCN(c2nc(OC[C@@H]3CCCN3C)nc3c(F)c(-c4nc(N)cc(C)c4C(F)(F)F)c(Cl)cc23)[C@@H](C)C1
Response line: -1

Prompt line: What do we get for COc1ccc(C(=O)c2no[n+]([O-])c2C(=O)c2ccc(OC)cc2)cc1 ?
Response line: -1

Prompt line: For Nc1ccccc1SC(CC(=O)c1ccccc1)c1c(Cl)cccc1Cl (configuration not stated) then?
Response line: -1

Next:
Prompt line: // param item: Cc1ccc(-c2csc3ncnc(Nc4cccc(O)c4)c23)cc1 ; yields the recorded call
Response line: -1

Prompt line: Next molecule up: CC(C)C[C@H](NC(=O)[C@@H](N)Cc1cccc2ccccc12)B(O)O
Response line: -1

Prompt line: NC(=O)c1c(NC(=O)c2ccc(C(F)(F)F)cc2Cl)sc2c1CCC(=O)C2 , same question.
Response line: -1

Prompt line: And then CCOC(=O)CCC(NC(=O)c1ccc(Oc2nc3cc(N)cc(N)c3nc2-c2ccccc2)cc1)C(=O)OCC (configuration not stated) , what is it?
Response line: -1

Prompt line: Try Cc1nc2sc(C(=O)Nc3cccc4c3OCCO4)c(N)c2cc1C(C)O (configuration not stated) next.
Response line: -1

Prompt line: Next up: Cc1nc2ccccc2c(/C=C/c2ccc(C(F)(F)F)cc2)c1C(=O)/C=C/c1ccccc1
Response line: -1

Prompt line: Try Cc1cc(N)c2cc(NC(=O)/C=C\c3ccccc3Cl)ccc2n1 next.
Response line: -1
